B1: TRIM43 (parent)
chain: NRFRVEISFHFEVTNHNIRLFEDV

Variants of: B1
Test: protein stability index of a GFP-peptide fusion (GPS, HEK-293T) (PSI 1-6); higher = more stable;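 further: lentivirally expressed fusions sorted by FACS into six bins by GFP to DsRed ratio, PSI derived from sequencing read proportions per bin multiplied by bin number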
Settings: c terminus: a fixed tail appended
Assay Endpoint: protein stability index

• NRFRVEISFSFEVTNHNIRLFEDV [H10S] = 3.4
• NRFRVEISFHFEVTNHNIYLFEDV [R19Y] = 3.54
• NSFRVEISFHFEVTNHNIRLFEDV [R2S] = 1.5
• NRFRVEGSFHFEVTNHNIRLFEDV [I7G] = 2.43
• NRFRVEISFHEEVTNHNIRLFEDV [F11E] = 1.03
• NRFRVEISFHFEHTNHNIRLFEDV [V13H] = 2.26
• NRFRVEISRHFEVTNHNIRLFEDV [F9R] = 1.76
• NRFIVEISFHFEVTNHNIRLFEDV [R4I] = 3.43
• NRFRVEYSFHFEVTNHNIRLFEDV [I7Y] = 3.41
• NRKRVEISFHFEVTNHNIRLFEDV [F3K] = 2.36
• NRNRVEISFHFEVTNHNIRLFEDV [F3N] = 3.43
• NRFRDEISFHFEVTNHNIRLFEDV [V5D] = 2.08
• NRFRVEISFHFEVTNHNIRLFEGV [D23G] = 3.13
• NRFRVEISFHFEVTEHNIRLFEDV [N15E] = 2.92
• NRFRVEISFHFEVTNHNWRLFEDV [I18W] = 3.01
• NRFRVEISPHFEVTNHNIRLFEDV [F9P] = 2.08
• NRFRVEISFHFEPTNHNIRLFEDV [V13P] = 4.3
• NRFRVEISFHFEVTNHNIRLWEDV [F21W] = 2
• NRFRVEISKHFEVTNHNIRLFEDV [F9K] = 1.85
• NRFRVEISFHFEVTNHNIDLFEDV [R19D] = 3.62
• NRFRVEISFHFEVTNHNIRLFENV [D23N] = 2.91
• NRVRVEISFHFEVTNHNIRLFEDV [F3V] = 2.2
• NRFRVEISFEFEVTNHNIRLFEDV [H10E] = 2.98
• NQFRVEISFHFEVTNHNIRLFEDV [R2Q] = 3.46
• NRFRVEFSFHFEVTNHNIRLFEDV [I7F] = 3.57
• NRFRVSISFHFEVTNHNIRLFEDV [E6S] = 3.18
• NRARVEISFHFEVTNHNIRLFEDV [F3A] = 3.07
• NRFRVKISFHFEVTNHNIRLFEDV [E6K] = 3.25
• NRFRVEISFHFEVTNHNIQLFEDV [R19Q] = 2.14
• NRFRVEISFHFEVTNHNIRLFEEV [D23E] = 2.56
• NRFRVEISFHFEVTNHKIRLFEDV [N17K] = 2.61
• NRFRVEISFHQEVTNHNIRLFEDV [F11Q] = 2.38
• NRFRVEISFHFEVTNHNIRLFEDF [V24F] = 2.43
• NRFRVEIRFHFEVTNHNIRLFEDV [S8R] = 2.43
• NRFRVEISFHFEVTNHNISLFEDV [R19S] = 3.39
• NRFRVEISFHFEVTNHNIRLFEYV [D23Y] = 2.39
• NRFRVEISFHFEVTFHNIRLFEDV [N15F] = 3.62
• NRFRVEISNHFEVTNHNIRLFEDV [F9N] = 2.22
• NRFRVEISFHIEVTNHNIRLFEDV [F11I] = 2.83
• NRFRVEISFHFEVNNHNIRLFEDV [T14N] = 3.31
• NRFRVEISTHFEVTNHNIRLFEDV [F9T] = 2.01
• NRFRVEESFHFEVTNHNIRLFEDV [I7E] = 1.91
• LRFRVEISFHFEVTNHNIRLFEDV [N1L] = 3.45
• NRFRVEISFHFEVTNHNIRLFEDL [V24L] = 1.95
• NRFRVEISFHFEVTNHNQRLFEDV [I18Q] = 3.52
• NRFRVEISFHKEVTNHNIRLFEDV [F11K] = 1.46
• NRFRVEISFHFEVTNHNIRYFEDV [L20Y] = 2.13
• TRFRVEISFHFEVTNHNIRLFEDV [N1T] = 1.62
• NRFRVEISFHFEVHNHNIRLFEDV [T14H] = 3.49
• NRFRVEISFHFEVTDHNIRLFEDV [N15D] = 2.5
• NRFREEISFHFEVTNHNIRLFEDV [V5E] = 1.46
• NRFRVEISFHFEVTNHNGRLFEDV [I18G] = 2.43
• NRFRVEISFHFWVTNHNIRLFEDV [E12W] = 2.64
• NRFRVEILFHFEVTNHNIRLFEDV [S8L] = 3.72
• NRMRVEISFHFEVTNHNIRLFEDV [F3M] = 2.92
• NRFRVEISFHFEVENHNIRLFEDV [T14E] = 2.04
• NRFRVENSFHFEVTNHNIRLFEDV [I7N] = 2.06
• NRFRVEISFHFEVTNHCIRLFEDV [N17C] = 3.65
• NRFRVEISFHFEVTNRNIRLFEDV [H16R] = 4.01
• NRFRVEISFHFEVTNHNIRLFEDH [V24H] = 4.23
• NRFEVEISFHFEVTNHNIRLFEDV [R4E] = 3.4
• NRFRVEISFHFEVTNHNIRLFEDI [V24I] = 2.14
• NRFRVEISFHFEVTNHRIRLFEDV [N17R] = 2.53
• NRFRVEISFHFEVTNHNIRLREDV [F21R] = 1.88
• QRFRVEISFHFEVTNHNIRLFEDV [N1Q] = 3.07
• NRFRVEISFHFEVTNHNDRLFEDV [I18D] = 1.3
• NRFRVEISFHFEVTNHNIRLFEDQ [V24Q] = 3.09
• NRCRVEISFHFEVTNHNIRLFEDV [F3C] = 2.54
• NRFRVEISSHFEVTNHNIRLFEDV [F9S] = 1.91
• NRFRVEISFHFNVTNHNIRLFEDV [E12N] = 1.39
• NRFRVEISFHFEVTNHNIRLFPDV [E22P] = 2.14
• NRFRVEISDHFEVTNHNIRLFEDV [F9D] = 2.27
• NRFRVEISFHFEVTTHNIRLFEDV [N15T] = 1.49
• NRFRVEISFHFEVTNHNKRLFEDV [I18K] = 1.47
• NRFRVEISHHFEVTNHNIRLFEDV [F9H] = 1.09
• NRFRVMISFHFEVTNHNIRLFEDV [E6M] = 2.64
• NRFRPEISFHFEVTNHNIRLFEDV [V5P] = 2.8
• NRFRVEISFHFEVTNHNCRLFEDV [I18C] = 4.6
• NRFRVEISFHFEVTNHNIRLFEQV [D23Q] = 2.92
• NRFRVEISFHFEVTNHNIRRFEDV [L20R] = 3.74
• NRFRVEISFHFEVTYHNIRLFEDV [N15Y] = 3.23
• NRFRTEISFHFEVTNHNIRLFEDV [V5T] = 3.37
• NYFRVEISFHFEVTNHNIRLFEDV [R2Y] = 2.89
• NRERVEISFHFEVTNHNIRLFEDV [F3E] = 1.53
• NRFRVEISFPFEVTNHNIRLFEDV [H10P] = 3.64
• NRFRVEISGHFEVTNHNIRLFEDV [F9G] = 2
• NRFRWEISFHFEVTNHNIRLFEDV [V5W] = 2.53
• RRFRVEISFHFEVTNHNIRLFEDV [N1R] = 2.37
• NRFTVEISFHFEVTNHNIRLFEDV [R4T] = 2.08
• NRFRVEISFHPEVTNHNIRLFEDV [F11P] = 1.58
• NPFRVEISFHFEVTNHNIRLFEDV [R2P] = 2.38
